# Tested on: PC3-CXCR4 xenograft tumors
# assay name: Biodistribution in mice bearing bilateral PC3-WT/PC3-CXCR4 xenograft tumors
# Type: in vivo, BALB/c mice
# cond: 1 h p.i.
Reported Bone tissue activity by item:
The response must be a number in %ID/g with no trailing unit.

Examples with answers:
smiles_record=FCCn1cc(CNCc2ccc(CN3CCCNCCNCCCNCC3)cc2)nn1 parameter="Bone tissue activity" endpoint_result=0.52
smiles_record=FCCn1cc(-c2cc(CN3CCCNCCNCCCNCC3)ccc2CNCc2ccccn2)nn1 parameter="Bone tissue activity" endpoint_result=1.44
smiles_record=FCCn1cc(-c2cc(CNCc3ccccn3)ccc2CN2CCCNCCNCCCNCC2)nn1 parameter="Bone tissue activity" endpoint_result=1.22

Okay, next one:
Query :: Dear colleague, I am looking for the recorded Bone tissue activity of the following compound: FCCn1cc(CCNCc2ccc(CN3CCCNCCNCCCNCC3)cc2)nn1
Result :: 0.64

---

# assay name: Biodistribution in mice bearing bilateral PC3-WT/PC3-CXCR4 xenograft tumors
# Assay type: in vivo, BALB/c mice
# cond: male, BALB/c athymic nude, mouse, PC3-CXCR4 tumor, iv, total radioactivity; 1 h p.i.; read-out: Maximum PC3-CXCR4 tumor activity
Non-standard residues stand in square brackets, D forms with d. Residues, ends and D or L forms follow the SMILES beside them. Groups on a side chain read outwards from the residue. *: point of attachment. DOTA = O=C(O)CN1CCN(CC(=O)O)CCN(CC(=O)*)CCN(CC(=O)O)CC1; 2Nal = N[C@@H](Cc1ccc2ccccc2c1)C(=O)O; dNMeOrn = CN[C@H](CCCN)C(=O)O; 4Amb = NCc1ccc(C(=O)O)cc1
parameter: tissue uptake at 1 h (%ID/g)
The response must be a number in %ID/g with no trailing unit.

Query :: Dear colleague, I am looking for the recorded tissue uptake at 1 h of the following molecule: CN1C(=O)[C@@H](Cc2ccc(O)cc2)NC(=O)CNC(=O)[C@H](Cc2ccc3ccccc3c2)NC(=O)[C@H](CCCNC(=N)N)NC(=O)[C@H]1CCCNC(=O)c1ccc(CNC(=O)CN2CCN(CC(=O)O)CCN(CC(=O)O)CCN(CC(=O)O)CC2)cc1 (68Ga complex, metal not drawn) [Pentixafor, reference compound] (cyclo([dY][dNMeOrn]([4Amb-DOTA])R[2Nal]G))
Result :: 14.6

---

# Test system: PC3-CXCR4 xenograft tumors
# assay name: Biodistribution in mice bearing bilateral PC3-WT/PC3-CXCR4 xenograft tumors
# Assay type: in vivo, BALB/c mice
# cond: 1 h p.i.
parameter: PC3-CXCR4 Tumor Uptake

smiles_record=FCCn1cc(-c2cc(CN3CCCNCCNCCCNCC3)ccc2CNCc2ccccn2)nn1 endpoint_result="7.20 ± 0.30 %ID/g"
smiles_record=FCCn1cc(CNCc2ccc(CN3CCCNCCNCCCNCC3)cc2)nn1 endpoint_result="3.09 ± 0.52 %ID/g"
smiles_record=FCCn1cc(-c2cc(CNCc3ccccn3)ccc2CN2CCCNCCNCCCNCC2)nn1 endpoint_result="1.93 ± 0.18 %ID/g"

Okay, next one:
Query :: Dear colleague, I am looking for the recorded PC3-CXCR4 Tumor Uptake of the following molecule: FCCn1cc(CCNCc2ccc(CN3CCCNCCNCCCNCC3)cc2)nn1
Result :: 2.52 ± 0.11 %ID/g

Values compiled from paper PMC6514812.
